# Test Target: analytical polyclonal antibody generated in Example 2
# Assay Name: SPR Biacore T100, polyclonal immobilized, 500 nM ISV
For each entry below, report its Binding (RU) at end of injection value.
Record the value in RU, omitting the unit from your answer.

Prompt: Look up Binding (RU) at end of injection for this binder: NB 3.14 (VHH) VHH: EVQLVESGGGLVQPGGSLRLSCAASRSIGRLDRMGWYRHRPGEPRELVATITGGSSINYGDSVKGRFTISIDNSKNTVYLQMNSLRPEDTAVYYCNFNKYVTSRDTWGQGTLVQVSS
Completion: 79

Prompt: // next record NB 3.12 (VHH) VHH: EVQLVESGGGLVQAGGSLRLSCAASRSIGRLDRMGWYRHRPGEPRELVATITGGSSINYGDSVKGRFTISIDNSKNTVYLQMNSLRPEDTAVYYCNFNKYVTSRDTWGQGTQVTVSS
Completion: 86

Prompt: One more binder: NB 3.11 (VHH) VHH: EVQLVESGGGLVQPGGSLRLSCAASRSIGRLDRMGWYRHRPGEPRELVATITGGSSINYGDSVKGRFTISIDNSKNTVYLQMNSLKPEDTAVYYCNFNKYVTSRDTWGQGTLVTVSS
Completion: 88

Prompt: Please answer likewise for NB 3.15 (VHH) VHH: EVQLVESGGGSVQPGGSLRLSCAASRSIGRLDRMGWYRHRPGEPRELVATITGGSSINYGDSVKGRFTISIDNSKNTVYLQMNSLRPEDTAVYYCNFNKYVTSRDTWGQGTLVTVSS
Completion: 22

Prompt: Request: NB 3.13 (VHH) VHH: EVQLVESGGGLVQPGGSLRLSCAASRSIGRLDRMGWYRHRPGEPRELVATITGGSSINYGDSVKGRFTISIDNSKNTVYLQMNSLRPEDTAVYYCNFNKYVTSRDTWGQGTQVTVSS
Completion: 90

Prompt: Can you handle NB 3.10 (VHH) VHH: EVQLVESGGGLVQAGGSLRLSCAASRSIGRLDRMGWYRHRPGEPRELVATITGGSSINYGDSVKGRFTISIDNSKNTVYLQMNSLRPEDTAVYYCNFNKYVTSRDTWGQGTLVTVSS next?
Completion: 91

Data origin: patent US20200216532A1
